# Assay comment: Stability in human plasma assessed as parent compound remaining after 24 hrs
# Assay type: ADME, cell-free
# Condition notes: read-out: Stability
# remaining at 24 h listing for each entry below
Only the number, expressed in %, is required.

Below: 2 molecules and their reported remaining at 24 h.
[[record]]
structure_as_smiles = "CCCC[C@H](NC(=O)C(C)(C)NC(=O)[C@H](CC(C)C)NC(=O)[C@H](CCCNC(=N)N)NC(=O)[C@H](CCC(=O)O)NC(=O)[C@H](Cc1ccccc1)NC(=O)[C@H](Cc1ccc(O)cc1)NC(=O)CNC(=O)[C@H](CC(=O)O)NC(=O)[C@@H](NC(=O)[C@H](Cc1cnc[nH]1)NC(=O)[C@@H](NC(=O)[C@H](CC(N)=O)NC(=O)[C@H]1CCCN1C(=O)[C@H](CCCCN)NC(=O)[C@H](CO)NC(=O)[C@H](CCC(N)=O)NC(=O)[C@H](Cc1ccccc1)NC(C)=O)C(C)C)C(C)(C)C)C(=O)N[C@@H](CCCCN)C(=O)N[C@@H](CC(C)C)C(N)=O"
measured_property = "remaining at 24 h"
experimental_value = 90.1

[[record]]
structure_as_smiles = "CC(=O)N[C@@H](Cc1ccccc1)C(=O)N[C@@H](CCC(N)=O)C(=O)N[C@@H](CO)C(=O)N[C@@H](CCCCN)C(=O)N1CCC[C@@H]1C(=O)N[C@@H](CC(N)=O)C(=O)N[C@H](C(=O)N[C@@H](Cc1cnc[nH]1)C(=O)N[C@H](C(=O)N1CCC[C@H]1C(=O)NCC(=O)N[C@@H](Cc1ccc(O)cc1)C(=O)N[C@@H](Cc1ccccc1)C(=O)NC(C)(C)C(=O)N[C@@H](CCCNC(=N)N)C(=O)N[C@@H](CC(C)C)C(=O)NC(C)(C)C(=O)N[C@@H](C)C(=O)N[C@@H](CCCCN)C(=O)N[C@@H](CC(C)C)C(N)=O)C(C)C)C(C)C"
measured_property = "remaining at 24 h"
experimental_value = 99.5


State the recorded remaining at 24 h for this entry: "CC(=O)N[C@@H](Cc1ccccc1)C(=O)N[C@@H](CCC(N)=O)C(=O)N[C@@H](CO)C(=O)N[C@@H](CCCCN)C(=O)N1CCC[C@@H]1C(=O)N[C@@H](CC(N)=O)C(=O)N[C@H](C(=O)N[C@@H](Cc1cnc[nH]1)C(=O)N[C@H](C(=O)N1CCC[C@H]1C(=O)N[C@H](C)C(=O)N[C@@H](Cc1ccc(O)cc1)C(=O)N[C@@H](Cc1ccccc1)C(=O)N[C@@H](CCC(=O)O)C(=O)N[C@@H](CCCNC(=N)N)C(=O)N[C@@H](CC(C)C)C(=O)NC(C)(C)C(=O)N[C@@H](C)C(=O)N[C@@H](CCCCN)C(=O)N[C@@H](CC(C)C)C(N)=O)C(C)C)C(C)C"
99.3

---

# Assay comment: Stability in mouse plasma assessed as parent compound remaining after 24 hrs
# Type: ADME, cell-free
# Condition notes: read-out: Stability
Measured property: remaining at 24 h (%)
Only the number, expressed in %, is required.

State the recorded remaining at 24 h for this entry: "CC(C)C[C@@H]1NC(=O)[C@H](CCCCN)NC(=O)[C@H](C)NC(=O)C(C)(C)NC(=O)[C@H](CC(C)C)NC(=O)[C@H](CCCNC(=N)N)NC(=O)[C@H](CCC(=O)O)NC(=O)[C@H](Cc2ccccc2)NC(=O)[C@H](Cc2ccc(O)cc2)NC(=O)CNC(=O)[C@H](CC(=O)O)NC(=O)[C@H](C(C)C)NC(=O)[C@H](Cc2cnc[nH]2)NC(=O)[C@H](C(C)C)NC(=O)[C@H](CC(N)=O)NC(=O)[C@H]2CCCN2C(=O)[C@H](CCCCN)NC(=O)[C@H](CO)NC(=O)[C@H](CCC(N)=O)NC(=O)[C@H](Cc2ccccc2)NC(=O)CCOCCOCCOCCNC1=O"
38.1
